settings: buffer; pH 7.4; 200.0 µM
Parameter threshold = 10 µg/mL. Response is met when solubility kinetic meets or exceeds it, else not met.

1. O=C(COC(=O)C1CCCC1)NCc1ccc(Cl)cc1 ... met
2. O=C(COC(=O)/C=C/c1ccccc1)NC1CCCCCC1 ... met
3. Cc1ccc(C(=O)Nc2ccc(NC(=O)c3ccco3)c(C)c2)cc1 ... not met
4. Cc1snc(SCc2c(F)cccc2Cl)c1C#N ... not met
5. Cc1nc(Cl)c(C(=O)NCc2ccccc2)c(C)c1[N+](=O)[O-] ... met
6. COc1ccccc1NS(=O)(=O)c1ccc2oc(=S)[nH]c2c1 ... met
7. COCCNC(=O)C(NC(=O)C1CCC(C)CC1)C(C)C (configuration not stated) ... met
8. CSc1ccc(Cl)c(C(=O)Nc2cc(S(=O)(=O)N3CCOCC3)ccc2N2CCOCC2)c1 ... not met
9. CC(=O)C(Sc1nccc(-c2cccs2)n1)C(C)=O ... met
10. Cc1ccc(NC(=O)NC2CCCCCCC2)cc1 ... not met
11. CN(C)CCNC(=O)Cc1ncc(C(F)(F)F)cc1Cl ... met
12. CCc1ccccc1N1CN(Cc2cccnc2)CNC1=S ... met
